Assay: Cell lysate reaction of pMT enzymes with psi-ionone, irones quantified by HS-SPME-GCMS
Type: biochemical
Conditions: single mutations vs parent (pMT7 or pMT12)
MEASURED_METRIC: in-vitro production of cis-α-irone (in words)

| MOLECULE | RESULT |
| --- | --- |
| A95C: pMT12 with A95C (protein, Modified from pMT1) MPQEARTPQQQVTADEVGDWYDKFGEVYHLTLGESVHCGLWFPPDAPVPQDMELVTMSSQAQDRFTDYLIETLDPKAGQHLLDIGCGTGRPALKCARQRGIAVTGVAVSKEQIAAANRLAAGHGLTERLTFEVADAMRLPYEDESFDCAWAIESLDHMDRAKALGEAWRVLKPGGDLLVAEEVVTEELTEPETALFETLFALNVPPRLGEFFDIVSGAGFHTLSLKDLSADLAMTMNVFALGVYSRRAEFTERFGAEFVDGLLAGLGSAQETVIRKTRFFMATLRKPAV | moderate increase |
| P191S: pMT12 with P191S (protein, Modified from pMT1) MPQEARTPQQQVTADEVGDWYDKFGEVYHLTLGESVHCGLWFPPDAPVPQDMELVTMSSQAQDRFTDYLIETLDPKAGQHLLDIGCGTGRPALKAARQRGIAVTGVAVSKEQIAAANRLAAGHGLTERLTFEVADAMRLPYEDESFDCAWAIESLDHMDRAKALGEAWRVLKPGGDLLVAEEVVTEELTESETALFETLFALNVPPRLGEFFDIVSGAGFHTLSLKDLSADLAMTMNVFALGVYSRRAEFTERFGAEFVDGLLAGLGSAQETVIRKTRFFMATLRKPAV | moderate increase |

Numbers sourced from patent US20240240209A1.
